System: rabbit skeletal myofibrils (fast skeletal myofibrils)
ASSAY_REMARKS: Activation of fast skeletal myofibrils (PUMA assay, PK/LDH-coupled ATPase at pCa25)
Type: biochemical
DETAILS: median AC1.4 class, procedure of Example 39
Text: Preparation of Fast Skeletal Myofibrils. […] Fast fiber activators were identified by measuring the enzymatic activity of muscle myofibril preparations using the proprietary PUMA™ (see, e.g., U.S. Pat. Nos. 6,410,254, 6,743,599, 7,202,051, and 7,378,254) assay system. […] This assay regenerates myosin-produced ADP into ATP by oxidizing NADH, producing an absorbance change at 340 nm. […]
REPORTED_ENDPOINT: Mean AC1.4

{"columns": ["COMPOUND", "STUDY_SYSTEM", "Mean AC1.4"],
 "data": [
  ["NC(=O)NC1CC=C(c2ccc(NCC3(c4ncccc4F)CCC3)nn2)CC1 (stereo not shown)", "rabbit skeletal myofibrils (fast skeletal myofibrils)", "B (B=1-10 uM)"],
  ["CC(C)(Nc1ccc(-c2ncc(C(N)=O)s2)nn1)c1ncccc1Cl", "rabbit skeletal myofibrils (fast skeletal myofibrils)", "B (B=1-10 uM)"],
  ["Cn1nc(-c2ccc(NCC3(c4ncccc4F)CCC3)nn2)cc1C(N)=O", "rabbit skeletal myofibrils (fast skeletal myofibrils)", "B (B=1-10 uM)"],
  ["O=C(CNC(=O)c1ccc(NCC2(c3ncccc3F)CCC2)nn1)OCc1ccccc1", "rabbit skeletal myofibrils (fast skeletal myofibrils)", "D (D=>20 uM)"],
  ["CS(=O)(=O)Nc1ncc(-c2ccc(NCC3(c4ncccc4F)CCC3)nn2)cn1", "rabbit skeletal myofibrils (fast skeletal myofibrils)", "D (D=>20 uM)"]
]}

Query :: Give Mean AC1.4 (rabbit skeletal myofibrils (fast skeletal myofibrils)) of the following compound: NC(=O)c1cc(-c2ccc(NC3(c4ncccc4F)CCC3)nn2)ccc1O
Result :: B (B=1-10 uM)

Query :: Please state recorded Mean AC1.4 (tested on rabbit skeletal myofibrils (fast skeletal myofibrils)) of Fc1cc2[nH]ncc2cc1-c1ccc(NC2(c3ncccc3F)CCC2)nn1
Result :: B (B=1-10 uM)

Query :: Find Mean AC1.4 (rabbit skeletal myofibrils (fast skeletal myofibrils)) for the entry NC(=O)c1nnc(-c2ccc(NCC3(c4ncccc4F)CCC3)nn2)s1
Result :: B (B=1-10 uM)

###

System: rabbit skeletal myofibrils (fast skeletal myofibrils)
ASSAY_REMARKS: Activation of fast skeletal myofibrils (PUMA assay, PK/LDH-coupled ATPase at pCa25)
Assay type: biochemical
DETAILS: AC1.4 determined according to the procedure of Example 39; reported as class symbols
REPORTED_ENDPOINT: Mean AC1.4

{"columns": ["COMPOUND", "STUDY_SYSTEM", "Mean AC1.4"],
 "data": [
  ["CC(C)(CNc1ccc(-c2cccc(C(N)=O)c2)nn1)c1ccccc1Cl", "rabbit skeletal myofibrils (fast skeletal myofibrils)", "A (A=<1 uM)"],
  ["CNc1n[nH]c2ccc(-c3ccc(NCC(C)(C)c4ccc(F)cc4)nn3)cc12", "rabbit skeletal myofibrils (fast skeletal myofibrils)", "B (B=1-10 uM)"],
  ["Cc1cc(NCC(C)(C)c2ccc(F)cc2)nnc1-c1cccc(C(N)=O)c1", "rabbit skeletal myofibrils (fast skeletal myofibrils)", "B (B=1-10 uM)"],
  ["CC(C)(CNc1ccc(-c2ccc3[nH]nc(N)c3c2)nn1)c1ncco1", "rabbit skeletal myofibrils (fast skeletal myofibrils)", "D (D=>20 uM)"],
  ["CC(CNc1ccc(-c2ccc3[nH]nc(N)c3c2)nn1)N1CCCCC1 (stereo not drawn)", "rabbit skeletal myofibrils (fast skeletal myofibrils)", "D (D=>20 uM)"]
]}

// below: Mean AC1.4 requested for another compound
Query :: Given the compound CC(C)(CNc1ccc(-c2cccc(O)n2)nn1)c1ccc(F)cc1 , what is its reported Mean AC1.4?
Result :: B (B=1-10 uM)
